Test system: full-length ATR (Homo sapiens)
Construct: in the presence of 5 nM full-length ATR
Experiment: ATR Inhibition Assay (radioactive-phosphate incorporation)
Particulars: Ki(app); 5 nM full-length ATR, 10 μM ATP, 800 μM target peptide, 25° C.
pKi: −log10 of the molar value.
Attribute measured: pKi

>>> experimental_value("CCS(=O)(=O)N1CC2CN(c3cnc(N)c(-c4nc5ccc(C)cc5[nH]4)n3)CC2C1 (centres unmarked)")
"6.00 to 7.00"
>>> experimental_value("CC#CCOC(=O)N1CCN(c2cnc(N)c(-c3nnc(-c4ccccc4)o3)n2)CC1")
"6.00 to 7.00"
>>> experimental_value("Nc1ncc(-n2ccc(=O)cc2)nc1-c1nnc(-c2ccccc2)o1")
"> 7.00"
>>> experimental_value("CN(C)C1CCN(C(=O)N2CC=C(c3cnc(N)c(-c4nc5ccccc5[nH]4)n3)CC2)CC1")
"6.00 to 7.00"
>>> experimental_value("CCC(=O)NC1CC=C(c2cnc(N)c(-c3nnc(-c4ccc(CNC)cc4)o3)n2)CC1 (centres unmarked)")
"> 7.00"
>>> experimental_value("CCS(=O)(=O)N1CC=C(c2cnc(N)c(-c3nnc(-c4ccccc4)o3)n2)CC1")
"> 7.00"
>>> experimental_value("CCC(=O)N(C)C1CCN(c2cnc(N)c(-c3nnc(-c4ccc(CNC)cc4)o3)n2)CC1")
"6.00 to 7.00"
>>> experimental_value("Nc1ncc(C2=CCN(C(=O)OCc3ccccc3)CC2)nc1-c1nnc(-c2ccccc2)o1")
"6.00 to 7.00"
>>> experimental_value("CCS(=O)(=O)N1CCN(c2cnc(N)c(-c3cn4ccsc4n3)n2)CC1")
"5.00 to 6.00"
>>> experimental_value("Nc1ncc(-n2ccc(=O)cc2)nc1-c1nc2ccccc2[nH]1")
"> 7.00"
>>> experimental_value("CN(C)C(=O)N1CC=C(c2cnc(N)c(-c3nc4ccccc4[nH]3)n2)CC1")
"6.00 to 7.00"
>>> experimental_value("Nc1ncc(N2CCN(S(=O)(=O)c3ccsc3)CC2)nc1-c1nnc(-c2ccccc2)o1")
"6.00 to 7.00"
>>> experimental_value("Nc1ncc(N2CCC3(CCNC3)C2)nc1-c1nnc(-c2ccccc2)o1 (centres unmarked)")
"5.00 to 6.00"
>>> experimental_value("CNCCC(=O)N1CC=C(c2cnc(N)c(-c3nc4ccccc4[nH]3)n2)CC1")
"6.00 to 7.00"
>>> experimental_value("CCS(=O)(=O)N1CCN(c2cnc(N)c(-c3nc4ccc(C)cc4[nH]3)n2)CC1")
"6.00 to 7.00"
>>> experimental_value("CC#CCOC(=O)N1CCN(c2cnc(N)c(-c3nc4ccccc4[nH]3)n2)CC1")
"5.00 to 6.00"
>>> experimental_value("CCNC(=O)C1CC1c1cnc(N)c(-c2nnc(-c3ccc(CNC)cc3)o2)n1 (centres unmarked)")
"6.00 to 7.00"
>>> experimental_value("CCS(=O)(=O)N1CC=C(c2cnc(N)c(-c3nc4cc(C(C)(C)C)ccc4[nH]3)n2)CC1")
"5.00 to 6.00"
>>> experimental_value("CCS(=O)(=O)N1CCN(c2cnc(N)c(-c3nnc(-c4ccc(CNC)cc4)o3)n2)CC1")
"> 7.00"
>>> experimental_value("CC(=O)N1CCN(c2cnc(N)c(C(=O)Nc3ccccn3)n2)CC1")
"5.00 to 6.00"
>>> experimental_value("COCC(=O)N1CC=C(c2cnc(N)c(-c3nc4ccccc4[nH]3)n2)CC1")
"> 7.00"
>>> experimental_value("CCS(=O)(=O)N1CCN(c2cnc(N)c(-c3cn(-c4ccc(N)cc4)nn3)n2)CC1")
"6.00 to 7.00"
>>> experimental_value("Nc1ncc(C2=CCN(c3ccccc3)CC2)nc1-c1nc2ccccc2[nH]1")
"6.00 to 7.00"
>>> experimental_value("Nc1ncc(N2CCN(C(=O)N3CCCCC3)CC2)nc1-c1nnc(-c2ccccc2)o1")
"6.00 to 7.00"
>>> experimental_value("CCS(=O)(=O)N1CCN(c2cnc(N)c(-c3nc4ccccc4s3)n2)CC1")
"6.00 to 7.00"
>>> experimental_value("COCCOC(=O)N1CC=C(c2cnc(N)c(-c3nnc(-c4ccccc4)o3)n2)CC1")
"> 7.00"
>>> experimental_value("CNCc1ccc(-c2nnc(-c3nc(N4C[C@@H]5C(C(=O)N(C)C)[C@@H]5C4)cnc3N)o2)cc1 (some centres unmarked)")
"6.00 to 7.00"
>>> experimental_value("Nc1ncc(N2CCN(C(=O)N3CCCCC3)CC2)nc1C(=O)Nc1ccccn1")
"5.00 to 6.00"
>>> experimental_value("CN(C)CC(=O)N1CC=C(c2cnc(N)c(-c3nc4ccccc4[nH]3)n2)CC1")
"6.00 to 7.00"

====

Test system: full-length ATR (Homo sapiens)
Construct: in the presence of 5 nM full-length ATR
Experiment: ATR Inhibition Assay (radioactive-phosphate incorporation)
Particulars: Ki(app); 5 nM full-length ATR, 10 μM ATP, 800 μM target peptide, 25° C.
Experimental: Test compounds were screened for their ability to inhibit ATR kinase using a radioactive-phosphate incorporation assay. Assays were carried out in a mixture of 50 mM Tris/HCl (pH 7.5), 10 mM MgCl2 and 1 mM DTT. […] After removing mean background values for all of the data points, Ki(app) data were calculated from non-linear regression analysis of the initial rate data using the Prism software package (GraphPad Prism version 3.0cx for Macintosh, GraphPad Software, San Diego Calif., USA).
pKi: −log10 of the molar value.
Attribute measured: pKi

>>> experimental_value("CC(C)S(=O)(=O)N1CCN(c2cnc(N)c(-c3nc4ccccc4[nH]3)n2)CC1 [Compound I-97]")
"6.00 to 7.00"
>>> experimental_value("Nc1ncc(C2=CCN(C(=O)N3CCCCC3)CC2)nc1-c1nc2ccccc2[nH]1 [Compound I-249]")
"6.00 to 7.00"
>>> experimental_value("CCS(=O)(=O)N1CC=C(c2cnc(N)c(-c3nc4cc(C)c(C)cc4[nH]3)n2)CC1 [Compound I-154]")
"6.00 to 7.00"
>>> experimental_value("Nc1ncc(C2=CCN(S(=O)(=O)c3ccccc3)CC2)nc1-c1nnc(-c2ccccc2)o1 [Compound I-102]")
"> 7.00"
>>> experimental_value("CNCc1ccc(-c2nnc(-c3nc(N4CCC[C@@H]4CO)cnc3N)o2)cc1 [Compound I-356]")
"6.00 to 7.00"
>>> experimental_value("CCS(=O)(=O)N1CC=C(c2cnc(N)c(C(=O)Nc3cnccn3)n2)CC1 [Compound I-170]")
"6.00 to 7.00"
>>> experimental_value("Nc1ncc(C2=CCN(S(=O)(=O)c3ccsc3)CC2)nc1-c1nc2ccccc2[nH]1 [Compound I-105]")
"> 7.00"
>>> experimental_value("COCC(=O)N1CCN(c2cnc(N)c(-c3nnc(-c4ccccc4)o3)n2)CC1 [Compound I-179]")
"6.00 to 7.00"
>>> experimental_value("Cc1ccc2nc(-c3nc(N4CCC(C#N)CC4)cnc3N)[nH]c2c1 [Compound I-34]")
"5.00 to 6.00"
>>> experimental_value("CC(=O)N1CC=C(c2cnc(N)c(-c3nnc(-c4ccccc4)o3)n2)CC1 [Compound I-125]")
"> 7.00"
>>> experimental_value("CCS(=O)(=O)N[C@@H]1C2CN(c3cnc(N)c(-c4nnc(-c5ccc(CNC)cc5)o4)n3)C[C@@H]21 (stereo partly shown) [Compound I-369]")
"> 7.00"
>>> experimental_value("Cc1ccc2nc(-c3nc(N4CCC(CO)CC4)cnc3N)[nH]c2c1 [Compound I-2]")
"5.00 to 6.00"
>>> experimental_value("Nc1ncc(N2CCN(C(=O)c3ccccn3)CC2)nc1-c1nnc(-c2ccccc2)o1 [Compound I-187]")
"6.00 to 7.00"

====

Test system: full-length ATR (Homo sapiens, UniProt Q13535)
Construct: in the presence of 5 nM full-length ATR
Sequence (Q13535 whole entry): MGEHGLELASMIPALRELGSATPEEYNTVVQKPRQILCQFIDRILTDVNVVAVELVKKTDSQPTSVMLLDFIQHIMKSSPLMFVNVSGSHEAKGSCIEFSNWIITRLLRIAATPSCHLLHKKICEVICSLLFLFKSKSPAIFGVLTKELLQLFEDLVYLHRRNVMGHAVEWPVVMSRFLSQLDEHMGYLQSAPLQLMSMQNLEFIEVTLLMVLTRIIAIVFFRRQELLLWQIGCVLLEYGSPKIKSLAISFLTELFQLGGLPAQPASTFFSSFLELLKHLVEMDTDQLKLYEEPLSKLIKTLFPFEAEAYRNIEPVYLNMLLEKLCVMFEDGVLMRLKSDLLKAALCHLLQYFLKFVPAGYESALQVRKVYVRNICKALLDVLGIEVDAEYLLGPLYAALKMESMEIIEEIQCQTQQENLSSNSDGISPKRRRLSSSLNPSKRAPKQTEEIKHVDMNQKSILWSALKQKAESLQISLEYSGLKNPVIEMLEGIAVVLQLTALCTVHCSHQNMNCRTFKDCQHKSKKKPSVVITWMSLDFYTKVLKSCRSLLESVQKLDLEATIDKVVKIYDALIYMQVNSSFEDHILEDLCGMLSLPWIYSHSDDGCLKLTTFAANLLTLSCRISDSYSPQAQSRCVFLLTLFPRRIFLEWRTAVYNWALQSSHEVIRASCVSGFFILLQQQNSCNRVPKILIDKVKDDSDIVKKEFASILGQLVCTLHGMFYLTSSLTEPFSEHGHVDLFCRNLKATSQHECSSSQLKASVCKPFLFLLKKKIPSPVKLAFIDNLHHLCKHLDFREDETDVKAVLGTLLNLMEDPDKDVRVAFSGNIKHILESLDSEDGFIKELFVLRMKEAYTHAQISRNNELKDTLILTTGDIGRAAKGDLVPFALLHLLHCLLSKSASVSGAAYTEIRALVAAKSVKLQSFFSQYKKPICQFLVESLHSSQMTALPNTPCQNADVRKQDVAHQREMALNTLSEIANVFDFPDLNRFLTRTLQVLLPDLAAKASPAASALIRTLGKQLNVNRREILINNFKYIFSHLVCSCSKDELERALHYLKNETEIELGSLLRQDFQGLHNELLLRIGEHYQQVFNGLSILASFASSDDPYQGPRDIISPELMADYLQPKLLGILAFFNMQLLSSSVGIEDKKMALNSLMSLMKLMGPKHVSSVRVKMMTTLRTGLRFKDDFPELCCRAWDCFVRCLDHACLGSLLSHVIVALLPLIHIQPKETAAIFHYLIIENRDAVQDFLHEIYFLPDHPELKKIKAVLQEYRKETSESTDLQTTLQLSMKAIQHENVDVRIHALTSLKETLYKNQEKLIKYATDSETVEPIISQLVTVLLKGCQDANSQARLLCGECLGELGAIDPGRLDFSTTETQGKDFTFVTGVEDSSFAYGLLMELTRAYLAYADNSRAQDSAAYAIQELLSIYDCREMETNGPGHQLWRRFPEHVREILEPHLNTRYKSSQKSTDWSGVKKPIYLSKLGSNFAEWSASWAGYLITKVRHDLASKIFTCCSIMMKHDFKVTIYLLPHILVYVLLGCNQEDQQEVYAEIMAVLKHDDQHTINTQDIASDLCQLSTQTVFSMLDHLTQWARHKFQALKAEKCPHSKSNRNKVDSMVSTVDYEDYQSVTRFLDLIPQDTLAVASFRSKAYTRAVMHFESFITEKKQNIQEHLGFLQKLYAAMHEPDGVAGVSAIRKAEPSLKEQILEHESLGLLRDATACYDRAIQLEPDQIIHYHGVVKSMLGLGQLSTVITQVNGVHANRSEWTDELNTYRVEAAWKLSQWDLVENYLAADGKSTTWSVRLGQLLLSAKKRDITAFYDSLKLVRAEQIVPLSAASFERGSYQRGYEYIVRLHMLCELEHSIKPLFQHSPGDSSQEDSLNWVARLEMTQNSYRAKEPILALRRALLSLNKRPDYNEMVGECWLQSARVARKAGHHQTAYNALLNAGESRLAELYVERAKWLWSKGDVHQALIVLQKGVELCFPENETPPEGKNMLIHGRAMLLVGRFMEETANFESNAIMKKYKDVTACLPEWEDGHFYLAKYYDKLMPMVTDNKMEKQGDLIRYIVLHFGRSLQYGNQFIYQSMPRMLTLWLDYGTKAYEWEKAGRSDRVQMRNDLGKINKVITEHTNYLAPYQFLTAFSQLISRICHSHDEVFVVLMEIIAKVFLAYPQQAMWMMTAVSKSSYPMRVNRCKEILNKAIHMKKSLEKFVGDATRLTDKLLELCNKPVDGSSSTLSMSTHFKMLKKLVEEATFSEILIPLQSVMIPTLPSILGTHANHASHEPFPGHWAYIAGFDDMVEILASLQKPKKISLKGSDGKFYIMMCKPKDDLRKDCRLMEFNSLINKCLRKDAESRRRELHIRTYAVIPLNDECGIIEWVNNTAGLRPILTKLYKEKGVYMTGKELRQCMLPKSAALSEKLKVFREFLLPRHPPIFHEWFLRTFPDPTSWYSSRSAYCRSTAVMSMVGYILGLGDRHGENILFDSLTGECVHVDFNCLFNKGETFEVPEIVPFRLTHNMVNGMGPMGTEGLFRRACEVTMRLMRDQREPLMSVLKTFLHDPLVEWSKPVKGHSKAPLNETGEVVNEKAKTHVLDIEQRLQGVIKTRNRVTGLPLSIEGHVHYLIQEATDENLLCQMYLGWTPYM
Experiment: ATR Inhibition Assay (radioactive-phosphate incorporation)
Assay type: biochemical
Particulars: Ki(app); 5 nM full-length ATR, 10 μM ATP, 800 μM target peptide, 25° C.
Measured Ki of individual entries
Attribute measured: Ki

>>> experimental_value("Nc1ncc(C2=CCN(C(=O)N3CCOCC3)CC2)nc1-c1nc2ccccc2[nH]1")
"100 to 1000 nM"
>>> experimental_value("Nc1ncc(C2=CCN(C(=O)C3CCCC3)CC2)nc1-c1nnc(-c2ccccc2)o1")
"< 100 nM"
>>> experimental_value("Cc1cccc(C)c1C(=O)N1CCN(c2cnc(N)c(C(=O)Nc3ccccn3)n2)CC1")
"100 to 1000 nM"

====

Test system: full-length ATR (Homo sapiens)
Construct: in the presence of 5 nM full-length ATR
Experiment: ATR Inhibition Assay (radioactive-phosphate incorporation)
Particulars: Ki(app); 5 nM full-length ATR, 10 μM ATP, 800 μM target peptide, 25° C.
pKi: −log10 of the molar value.
Measured pKi of individual entries
Attribute measured: pKi

>>> experimental_value("CCCS(=O)(=O)N1CCN(c2cnc(N)c(-c3nc4ccccc4[nH]3)n2)CC1")
"6.00 to 7.00"
>>> experimental_value("Nc1ncc(C2=CCN(C(=O)c3ccccc3)CC2)nc1-c1nnc(-c2ccccc2)o1")
"> 7.00"
>>> experimental_value("CCC(=O)N1CCN(c2cnc(N)c(-c3nnc(-c4ccc(CNC)cc4)o3)n2)[C@H](C)C1")
"6.00 to 7.00"
>>> experimental_value("CCS(=O)(=O)NC1CN(c2cnc(N)c(-c3nnc(-c4ccccc4)o3)n2)C1")
"6.00 to 7.00"
>>> experimental_value("CCS(=O)(=O)N1CCN(c2cnc(N)c(-c3nnc(-c4ccco4)o3)n2)CC1")
"6.00 to 7.00"
>>> experimental_value("Nc1ncc(C2=CCN(S(=O)(=O)c3cccs3)CC2)nc1-c1nc2ccccc2[nH]1")
"> 7.00"
>>> experimental_value("CC(=O)N1CCN(c2cnc(N)c(-c3nnc(-c4ccccc4)o3)n2)CC1")
"6.00 to 7.00"
>>> experimental_value("Cc1ccc2nc(-c3nc(N4CCn5cnnc5C4)cnc3N)[nH]c2c1")
"5.00 to 6.00"
>>> experimental_value("Cc1ccc2nc(-c3nc(N4CCN(c5ccccn5)CC4)cnc3N)[nH]c2c1")
"5.00 to 6.00"
>>> experimental_value("Nc1ncc(C2=CCN(C(=O)C3CCCC3)CC2)nc1-c1nc2ccccc2[nH]1")
"6.00 to 7.00"
>>> experimental_value("COc1cccc(N2CCN(c3cnc(N)c(-c4nc5ccc(C)cc5[nH]4)n3)CC2)c1")
"6.00 to 7.00"
>>> experimental_value("CN(C)S(=O)(=O)N1CC=C(c2cnc(N)c(-c3nc4ccccc4[nH]3)n2)CC1")
"> 7.00"
>>> experimental_value("Nc1ncc(N2CCN(S(=O)(=O)c3cccs3)CC2)nc1C(=O)Nc1ccccn1")
"6.00 to 7.00"
>>> experimental_value("CCS(=O)(=O)N1CCN(c2cnc(N)c(-c3nnc(-c4ccc(CNC)cc4)o3)n2)C[C@@H]1C")
"> 7.00"
